Please respond with reported Kd for every item in the list.
Target: T1, GST fusion of the FAT (focal adhesion targeting) domain of focal adhesion kinase, human FAK 892-1052 (human, UniProt Q05397 892-1052)
T1 construct: focal adhesion kinase (FAK), human, FAT domain, residues 892-1052; Cloned into pGEX4T1; For the pull-down provided by Dr. M. K. Hoellerer; for bio-layer interferometry the same construct was synthesised (GeneArt) and made by the same procedure; also called GST-FAT; GST labeled FAT; source: E. coli BL21 (DE3), purified using GST-4B beads
T1 sequence (looked up): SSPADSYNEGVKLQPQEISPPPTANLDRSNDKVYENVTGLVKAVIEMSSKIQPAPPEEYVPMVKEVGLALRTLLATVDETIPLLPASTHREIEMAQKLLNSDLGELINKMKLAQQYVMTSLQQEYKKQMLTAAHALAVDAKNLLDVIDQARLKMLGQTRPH
Assay: BLI; GST-FAT immobilised on Anti-GST biosensors (20 μg/ml in PBS), paxillin constructs as analytes in PBS with Tween 20 (0.05%) and BSA (1%), Octet RED96, global fitting (B2 1:1 model, C35_1 to C35_3 2:1 model)
Conditions: both partners purified
Please state the figure in µM; there is no need to write the unit.

Q) Give the measured Kd of paxillin Construct C35_1 (54-189) (domain or fragment, human, UniProt P49023-2 54-189, looked up, human paxillin residues 54-189; Cloned into pET28a; source: E. coli BL21DE3, purified) SSEALNGTILDPLDQWQPSSSRFIHQQPQSSSPVYGSSAKTSSVSNPQDSVGSPCSRVGEEEHVYSFPNKQKSAEPSPTVMSTSLGSNLSELDRLLLELNAVQHNPPGFPADEANSSPPLPGALSPLYGVPETNSP .
A) 5.39

Q) Further, for paxillin Construct C35_3 (105-189) (domain or fragment, human, UniProt P49023-2 105-189, looked up, human paxillin residues 105-189; Cloned into pET28a; source: E. coli BL21DE3, purified) GSPCSRVGEEEHVYSFPNKQKSAEPSPTVMSTSLGSNLSELDRLLLELNAVQHNPPGFPADEANSSPPLPGALSPLYGVPETNSP ?
A) 1.45

Q) Further, for paxillin Construct C35_2 (79-189) (domain or fragment, human, UniProt P49023-2 79-189, looked up, human paxillin residues 79-189; Cloned into pET28a; source: E. coli BL21DE3, purified) QQPQSSSPVYGSSAKTSSVSNPQDSVGSPCSRVGEEEHVYSFPNKQKSAEPSPTVMSTSLGSNLSELDRLLLELNAVQHNPPGFPADEANSSPPLPGALSPLYGVPETNSP ?
A) 16.9

Q) Further, for paxillin construct B2, expressed in E. coli for bio-layer interferometry (domain or fragment) SSEALNGTILDPLDQWQPSSSRFIHQQPQSSSPVYGSSAKTSSVSNPQDSVGSPCSRVGEEEHVYSFPNKQKSAEPSPTVMSTSLGSNLSELDRLLLELNAVQHNPPGFPADEANSSPPLPGALSPLYGVPETNSPLGGKAGPLTKEKPKRNGGRGLEDVRPSVESLLDELESSVPSPVPAITVNQGEMSSPQRVTSTQQQTRISASSATRELDELMASLSDFKFM ?
A) 0.0361

Sourced from paper PMC4771712
